Measured koff values are reported for all entries that follow.
Molecular target: T1, human transferrin receptor (recombinant, SPR) (human, UniProt P02786 89-760)
T1 construct: also called huTfR; human transferrin receptor-biotinylated
T1 sequence (P02786 89-760 limits assumed): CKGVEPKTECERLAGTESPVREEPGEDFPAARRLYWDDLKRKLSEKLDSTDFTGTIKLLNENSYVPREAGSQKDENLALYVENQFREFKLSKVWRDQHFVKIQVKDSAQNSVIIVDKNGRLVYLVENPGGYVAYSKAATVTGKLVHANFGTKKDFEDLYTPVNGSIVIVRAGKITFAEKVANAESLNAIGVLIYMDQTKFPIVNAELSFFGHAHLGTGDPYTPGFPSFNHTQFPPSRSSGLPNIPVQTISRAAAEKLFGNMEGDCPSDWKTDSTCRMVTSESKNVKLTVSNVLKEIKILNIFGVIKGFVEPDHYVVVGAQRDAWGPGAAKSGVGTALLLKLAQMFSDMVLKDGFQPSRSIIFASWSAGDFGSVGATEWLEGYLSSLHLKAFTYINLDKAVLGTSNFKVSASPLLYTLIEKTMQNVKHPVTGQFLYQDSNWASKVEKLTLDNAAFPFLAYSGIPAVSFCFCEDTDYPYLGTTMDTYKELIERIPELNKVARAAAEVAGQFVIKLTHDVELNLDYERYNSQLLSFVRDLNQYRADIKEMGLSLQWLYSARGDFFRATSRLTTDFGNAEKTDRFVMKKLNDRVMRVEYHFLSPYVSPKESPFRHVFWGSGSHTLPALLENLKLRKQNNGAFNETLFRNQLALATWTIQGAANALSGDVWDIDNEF
Experiment: SPR 25C
Reply numerically in s⁻¹, unit not repeated.

2/99 VH6/VL9-NYA (antibody, V domains shown) VH: QQLVETGGGLIQPGGSLRLSCAASGFSLSSYAMSWVRQAPGKGLEWIGYIWSGGSTDYADSVKGRFTISRDNSKNTLYLQMNSLRAEDTAVYYCARRYGTSYPDYGDANGFDPWGQGTLVTVSS VL: AIQLTQSPSSLSASVGDRVTITCRASQSISSYLAWYQQKPGKAPKLLIYRASTLASGVPSRFSGSGSGTDFTLTISSLQPEDFATYYCQQNYASSNVDNTFGGGTKVEI    0.00141

Attention now turns to another entry.
In: Look at this binder and give its reported koff. 2/99 VH9/VL2 (antibody, V domains shown) VH: QQLLESGGGLVQPGGSLRLSCAASGFTFSSYAMSWVRQAPGKGLEWVGYIWSGGSTDYADSVKGRFTISRDNSKNTLYLQMNSLRAEDTAVYYCAKRYGTSYPDYGDANGFDPWGQGTLVTVSS VL: DIQMTQSPSSLSASVGDRVTITCRASQSISSYLNWYQQKPGKAPKLLIYRASTLASGVPSRFSGSGSGTDFTLTISSLQPEDFATYYCQQSYSSSNVDNTFGGGTKVEIK
Out: 0.00399
